# Target Under Test: AKT1 WT (Homo sapiens, UniProt P31749)
# Sequence (P31749 whole entry): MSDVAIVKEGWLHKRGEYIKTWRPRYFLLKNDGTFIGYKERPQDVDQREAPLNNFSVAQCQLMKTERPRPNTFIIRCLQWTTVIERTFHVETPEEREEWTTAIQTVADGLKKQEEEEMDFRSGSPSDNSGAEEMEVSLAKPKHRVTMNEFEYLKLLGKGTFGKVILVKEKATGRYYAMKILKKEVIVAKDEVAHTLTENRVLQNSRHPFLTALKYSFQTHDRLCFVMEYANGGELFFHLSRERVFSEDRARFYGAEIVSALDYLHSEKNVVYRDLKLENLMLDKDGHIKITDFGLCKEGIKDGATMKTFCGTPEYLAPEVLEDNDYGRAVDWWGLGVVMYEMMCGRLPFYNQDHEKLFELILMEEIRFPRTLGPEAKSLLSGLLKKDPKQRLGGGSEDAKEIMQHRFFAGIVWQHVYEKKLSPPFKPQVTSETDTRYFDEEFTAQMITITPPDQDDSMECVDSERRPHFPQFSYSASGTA
# Method Summary: Live cell target engagement by NanoBRET competitive probe displacement, AKT1 WT
# Condition Context: transfected HEK293 cells, 2 h at 37° C., read-out: AKT1 WT IC50: GeoMean IC50
Observation Type: IC50

Prompt: Please provide the recorded IC50 for Nc1ncccc1-c1nc2ccc(-n3cc4c(n3)CNC4)nc2n1-c1ccc2c(c1)CC[C@@H]2NC(=O)c1ccc(O)c(C=O)c1 , tested on AKT1 WT (Homo sapiens, UniProt P31749).
Response: 100 to 2000 nM

Prompt: Short answer please: IC50, AKT1 WT (Homo sapiens, UniProt P31749), entry Nc1ncccc1-c1nc2ccc(-n3nccn3)nc2n1-c1ccc2c(c1)CC[C@@H]2NC(=O)c1cc(C=O)c(O)c(F)c1F
Response: 10 to 100 nM

Prompt: # query: IC50 | item Nc1ncccc1-c1nc2ccc(-n3ccnn3)nc2n1-c1ccc2c(c1)CC[C@@H]2NC(=O)c1ccc(O)c(C=O)c1 | system: AKT1 WT (Homo sapiens, UniProt P31749)
Response: 10 to 100 nM

Prompt: Please provide the recorded IC50 for Nc1ncccc1-c1nc2ccc(-c3cncnc3)nc2n1-c1ccc2c(c1)CC[C@@H]2NC(=O)c1ccc(O)c(C=O)c1 , tested on AKT1 WT (Homo sapiens, UniProt P31749).
Response: 10 to 100 nM

Prompt: Give IC50 (AKT1 WT (Homo sapiens, UniProt P31749)) of the following compound: Cc1ccn(-c2ccc3nc(-c4cccnc4N)n(-c4ccc5c(c4)CC[C@@H]5NC(=O)c4ccc(O)c(C=O)c4)c3n2)n1
Response: 10 to 100 nM

Prompt: Param readout = IC50; param system = AKT1 WT (Homo sapiens, UniProt P31749); param query = Nc1ncccc1-c1nc2ccc(-n3cccn3)nc2n1-c1ccc2c(c1)CC[C@@H]2n1cnc2cc(O)c(C=O)cc2c1=O ; response: value
Response: 10 to 100 nM

Prompt: Lab note: need IC50 with AKT1 WT (Homo sapiens, UniProt P31749) for entry Nc1ncccc1-c1nc2ccc(-c3ccccc3)nc2n1-c1ccc2c(c1)CCC2NCCc1ccc(C=O)c(O)c1 (stereo not shown) , please look it up.
Response: 100 to 2000 nM

Prompt: Give IC50 (AKT1 WT (Homo sapiens, UniProt P31749)) of the following compound: CN1CC(n2ccc(-c3ccc4nc(-c5cccnc5N)n(-c5ccc6c(c5)CC[C@@H]6NC(=O)c5ccc(O)c(C=O)c5)c4n3)n2)C1
Response: 10 to 100 nM

Prompt: Value wanted: IC50 (AKT1 WT (Homo sapiens, UniProt P31749)) of entry Nc1ncccc1-c1nc2ccc(-n3ccc(Cl)n3)nc2n1-c1ccc2c(c1)CC[C@@H]2NC(=O)c1ccc(O)c(C=O)c1
Response: 100 to 2000 nM

Prompt: Entry Nc1ncccc1-c1nc2c(N3CCC3)cc(-n3cccn3)nc2n1-c1ccc2c(c1)CC[C@@H]2NC(=O)c1ccc(O)c(C=O)c1 , system AKT1 WT (Homo sapiens, UniProt P31749): what IC50 was measured?
Response: 10 to 100 nM

Prompt: Kindly state the measured IC50 obtained for CS(=O)(=O)Nc1ncc(C(=O)N[C@H]2CCc3cc(-n4c(-c5cccnc5N)nc5ccc(-n6cccn6)nc54)ccc32)cc1C=O with AKT1 WT (Homo sapiens, UniProt P31749).
Response: 100 to 2000 nM

Prompt: Fill in the recorded IC50 for this compound, with AKT1 WT (Homo sapiens, UniProt P31749) as test system: Nc1ncccc1-c1nc2cccnc2n1-c1ccc2c(c1)CC[C@@H]2NC(=O)c1ccc(O)c(C=O)c1
Response: 100 to 2000 nM

Prompt: Request body: readout IC50, system AKT1 WT (Homo sapiens, UniProt P31749), query Nc1ncccc1-c1nc2c(Cl)cc(-n3cccn3)nc2n1-c1ccc2c(c1)CC[C@@H]2NC(=O)c1ccc(O)c(C=O)c1 . Return the value.
Response: 10 to 100 nM
